System: HIV-1 K103N mutant strain
ASSAY: microbe, parasite or virus in culture
Type: cell-based
PARTICULARS: CC50/EC50
Entries and their SI K103N
MEASURED PARAMETER: SI K103N

INSERT INTO results (compound, measured_parameter, relational_operator, measurement) VALUES
  ('Cc1cc(-c2ccco2)cc(C)c1Oc1nc(NC2CCN(Cc3ccc(C(N)=O)cc3)CC2)nc2ccsc12 [Compound 12]', 'SI K103N', '=', 224),
  ('Cc1cc(-c2cccc(C#N)c2)cc(C)c1Oc1nc(NC2CCN(Cc3ccc(S(N)(=O)=O)cc3)CC2)nc2ccsc12 [Compound 27]', 'SI K103N', '=', 1639),
  ('Cc1cc(-c2ccc(C#N)cc2)cc(C)c1Oc1nc(NC2CCN(Cc3ccc(S(N)(=O)=O)cc3)CC2)nc2ccsc12 [Compound 25]', 'SI K103N', '=', 403),
  ('Cc1cc(-c2ccoc2)cc(C)c1Oc1nc(NC2CCN(Cc3ccc(C(N)=O)cc3)CC2)nc2ccsc12 [Compound 14]', 'SI K103N', '=', 212),
  ('Cc1cc(-c2cccs2)cc(C)c1Oc1nc(NC2CCN(Cc3ccc(C(N)=O)cc3)CC2)nc2ccsc12 [Compound 16]', 'SI K103N', '≥', 111),
  ('Cc1cc(-c2cccc(N(C)C)c2)cc(C)c1Oc1nc(NC2CCN(Cc3ccc(S(N)(=O)=O)cc3)CC2)nc2ccsc12 [Compound 31]', 'SI K103N', '=', 161),
  ('Cc1cc(-c2ccc(C#N)cc2)cc(C)c1Oc1nc(NC2CCN(Cc3ccc(C(N)=O)cc3)CC2)nc2ccsc12 [Compound 26]', 'SI K103N', '=', 910),
  ('Cc1cc(-c2ccco2)cc(C)c1Oc1nc(NC2CCN(Cc3ccc(S(N)(=O)=O)cc3)CC2)nc2ccsc12 [Compound 11]', 'SI K103N', '=', 651);
